Consider the following molecules; for each one, report its IC50.
SYSTEM TESTED: KRAS G12S (Homo sapiens, UniProt P01116+P62937, G12S)
Sequence (P01116 1-169 isoform P01116-2 G12S limits assumed): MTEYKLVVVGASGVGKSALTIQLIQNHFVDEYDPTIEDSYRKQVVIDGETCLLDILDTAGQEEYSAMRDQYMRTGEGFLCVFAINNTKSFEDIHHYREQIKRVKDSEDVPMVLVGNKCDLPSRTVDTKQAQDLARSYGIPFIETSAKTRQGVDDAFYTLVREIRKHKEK
Sequence (P62937 whole entry): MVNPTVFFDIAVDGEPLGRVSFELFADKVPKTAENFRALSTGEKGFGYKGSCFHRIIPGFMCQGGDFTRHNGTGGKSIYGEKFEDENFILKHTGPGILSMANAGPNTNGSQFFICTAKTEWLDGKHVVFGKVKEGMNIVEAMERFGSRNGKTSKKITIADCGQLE
TEST PROTOCOL: Disruption of BRAF RBD interaction with Ras (FRET / MOA assay, with Cyclophilin A)
Format: biochemical
RUN CONDITIONS: read-out: KRAS G12S FRET data, IC50
From the text: This protocol may also be executed substituting other Ras proteins or nucleotides. The purpose of this biochemical assay was to measure the ability of test compounds to facilitate ternary complex formation between a nucleotide-loaded K-Ras isoform and Cyclophilin A; the resulting ternary complex disrupts binding to a BRAF^RBD construct, inhibiting K-Ras signaling through a RAF effector. Data is reported as IC50 values. […]

Example entries and their recorded answers appear below.
MOLECULE: CCn1c(-c2cccnc2[C@H](C)OC)c2c3cc(cnc31)-c1csc(n1)C[C@H](NC(=O)[C@H](C(C)C)N(C)C(=O)N1CC(OC)C1)C(=O)N1CCC[C@H](N1)C(=O)OCC(C)(C)C2 [Example A612]
IC50: 1000 to 10000 nM
--
MOLECULE: CCn1c(-c2cccnc2[C@H](C)OC)c2c3cc(ccc31)-c1csc(n1)C[C@H](NC(=O)[C@H](C(C)C)N(C)C(=O)N1CC(N3CCCC3)C1)C(=O)N1CCC[C@H](N1)C(=O)OCC(C)(C)C2 [Example A329]
IC50: 100 to 1000 nM
--
MOLECULE: CCn1c(-c2cccnc2[C@H](C)OC)c2c3cc(ccc31)-c1cc(O)cc(c1)C[C@H](NC(=O)[C@H](C(C)C)N(C)C(=O)[C@H]1CC[C@@H](CN(C)C)O1)C(=O)N1CCC[C@H](N1)C(=O)OCC(C)(C)C2 [Example A397]
IC50: 10 to 100 nM
--
MOLECULE: CCn1c(-c2cccnc2[C@H](C)OC)c2c3cc(ccc31)-c1cc(O)cc(c1)C[C@H](NC(=O)[C@H](C(C)C)N(C)C(=O)C1CCC(C3CCCO3)O1)C(=O)N1CCC[C@H](N1)C(=O)OCC(C)(C)C2 (some centres unmarked) [Example A396]
IC50: 10 to 100 nM

Now look at this one.
Prompt line: Notebook entry, KRAS G12S (Homo sapiens, UniProt P01116+P62937, G12S) assay: IC50 of CCn1c(-c2cccnc2[C@H](C)OC)c2c3cc(ccc31)-c1cc(O)cc(c1)C[C@H](NS(=O)(=O)CCN(C)C)C(=O)N1CCC[C@H](N1)C(=O)OCC(C)(C)C2 (racemic) [Example A190] = ?
Response line: > 10000 nM

Source listed as patent US20230233569A1.
